List of log10 Ki tested on Aurora kinase A (Homo sapiens).
Sequence (O14965 whole entry): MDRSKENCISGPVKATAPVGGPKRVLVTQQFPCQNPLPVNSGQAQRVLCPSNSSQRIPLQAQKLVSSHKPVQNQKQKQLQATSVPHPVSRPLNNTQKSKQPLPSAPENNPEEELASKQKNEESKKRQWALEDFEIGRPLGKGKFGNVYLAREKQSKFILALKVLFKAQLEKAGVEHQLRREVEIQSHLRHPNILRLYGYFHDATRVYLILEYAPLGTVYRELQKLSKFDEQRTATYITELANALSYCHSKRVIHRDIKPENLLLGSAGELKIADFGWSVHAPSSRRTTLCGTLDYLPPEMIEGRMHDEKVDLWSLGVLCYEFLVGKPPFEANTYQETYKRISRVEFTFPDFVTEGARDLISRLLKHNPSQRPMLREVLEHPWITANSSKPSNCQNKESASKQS
Each number you see is log10 of Ki, and the unit inside the log is nM.

{"query smiles": "COc1cc2c(Nc3cc(CC(=O)Nc4cccc(F)c4)[nH]n3)ncnc2cc1OCCCNCCO", "log10 Ki": 2.84}
{"query smiles": "O=C(Cc1cc(Nc2ncnc3cc(OCCCN4CCC[C@@H]4CO)ccc23)n[nH]1)Nc1cccc(F)c1F", "log10 Ki": 2.98}
{"query smiles": "COc1cc2c(Nc3cc(CC(=O)Nc4cccc(F)c4F)[nH]n3)ncnc2cc1OCCCN1CCC[C@H]1CO", "log10 Ki": 1.59}
{"query smiles": "COc1cc2c(Nc3cc(CC(=O)Nc4cccc([N+](=O)[O-])c4)[nH]n3)ncnc2cc1OCCCN1CCC(CO)CC1", "log10 Ki": 2.95}
{"query smiles": "COc1cc2c(Nc3cc(CC(=O)Nc4cccc(F)c4)[nH]n3)ncnc2cc1OCCCN1CCC[C@@H]1CO", "log10 Ki": 2.04}

# input for lookup
State its log10 Ki on Aurora kinase A (Homo sapiens): COc1cc2c(Nc3cc(CC(=O)Nc4cccc(Cl)c4)[nH]n3)ncnc2cc1OCCCN1CCC(CO)CC1
2.65
